B1: CDKL4 (parent)
chain: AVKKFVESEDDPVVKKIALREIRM

- Variants of: B1
- assay summary: protein stability index of a GFP-peptide fusion (GPS, HEK-293T) (PSI 1-6); higher = more stable;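 also: lentivirally expressed fusions sorted by FACS into six bins by GFP to DsRed ratio, PSI derived from sequencing read proportions per bin multiplied by bin number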
- study conditions: c terminus: a fixed tail appended
The entries below are paired with their reported protein stability index.
# respond with the number and nothing more

As a guide, the following entries are already answered.
variant key: A18V
protein stability index: 2.6
//
variant key: V6F
protein stability index: 2.1
//
variant key: D11Y
protein stability index: 2.46
//
variant key: A18K
protein stability index: 3.03
//
variant key: S8D
protein stability index: 3.12

Summary for this variant, "K16F" : protein stability index is 2.77

Summary for this variant, "V2Q" : protein stability index is 3.56

Summary for this variant, "K15Y" : protein stability index is 1.81
